src = patent US20260151519A1

What Kd was measured for each of the following?
Target: T1, Human Nectin-4 (human, UniProt Q96NY8 32-349, limits assumed)
T1 construct: Protein immobilised on the SPR chip; also called target protein
T1 sequence: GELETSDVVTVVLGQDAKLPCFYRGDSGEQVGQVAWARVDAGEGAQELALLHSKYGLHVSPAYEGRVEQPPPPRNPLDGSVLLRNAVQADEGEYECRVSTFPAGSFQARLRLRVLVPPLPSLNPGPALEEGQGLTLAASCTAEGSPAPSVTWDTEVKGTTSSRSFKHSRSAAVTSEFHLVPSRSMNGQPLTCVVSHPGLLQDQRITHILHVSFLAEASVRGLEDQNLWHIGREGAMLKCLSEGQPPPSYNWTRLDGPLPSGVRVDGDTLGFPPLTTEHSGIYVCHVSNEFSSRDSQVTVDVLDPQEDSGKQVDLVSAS
Test: Table 2B (DELFIA or SPR)
Bridges are numbered along the chain shown (N, C = ends). Primed or numbered codes have the meaning given here. Where no end group is shown, it is not given here. The star is where a group is joined. DTPA = O=C(O)CN(CCN(CC(=O)O)CC(=O)O)CCN(CC(=O)O)CC(=O)*; Biotin = O=C1N[C@H]2[C@H](CS[C@H]2CCCCC(=O)*)N1; PEG4″ = 4(ethylene glycol)
Write down the value, and be sure its unit follows.

Below, 8 binders whose answers are already recorded.
[[record]]
binder = "Ac-CEYDEQFFTGLKRLRGGDICYYIKKKFKKVPKLCIEEILDKLGC-OH (designed binder, disulfide 1-34, 20-44) [C71]"
measured_result = "2.85 nM"

[[record]]
binder = "{DTPA-PEG4″}-CEYDEEFFAGLKRLRGGDICYYIKKKFDKVPDLCIEEILDKLGC-OH (designed binder, disulfide 1-34, 20-44) [C11]"
measured_result = "6.86 nM"

[[record]]
binder = "{Biotin-PEG4″}-CDYDEQFFTALKRLRGGDICEYIQASFQYLPGQCIEEILDNLGCS (designed binder, disulfide 1-34, 20-44) [C211]"
measured_result = "1.19 nM"

[[record]]
binder = "Ac-CEYDEQFFTALKALRGGDICYYIQASFNYLPDLCIEEILDNLGC-NH2 (designed binder, disulfide 1-34, 20-44) [C112]"
measured_result = "6.24 nM"

[[record]]
binder = "Ac-CEDDFQFFADLKRLRGGDICYYIRLKFDKVPDLCIKEILDKLGC-OH (designed binder, disulfide 1-34, 20-44) [C6]"
measured_result = "17.1 nM"

[[record]]
binder = "Ac-CEYDEEFFLALKRLRGGDICYYIKKKFKKVPKLCIEEILDKLGC-OH (designed binder, disulfide 1-34, 20-44) [C78]"
measured_result = "0.49 nM"

[[record]]
binder = "H-CEYDEEFFAGLKRLRGGDICYYIKKKFDKVPDLCIKEILDKLGC-OH (designed binder, disulfide 1-34, 20-44) [C3]"
measured_result = "9.68 nM"

[[record]]
binder = "{Biotin-PEG4″}-CEDDEEFFADLKRLRGGDICYYIKLKFDKVPDLCIKEILDKLGC (designed binder, disulfide 1-34, 20-44) [C2]"
measured_result = "58.9 nM"


Hi! Can you tell me Kd for each of these binders?
1. {Biotin-PEG4″}-CEYDEEFFTALARLRGGDICDYIQAKFQYLPGLCIAEILDNLGCS-OH (designed binder, disulfide 1-34, 20-44) [C157]
2. {Biotin-PEG4″}-CEYDEEFFTALKRLRGGDICDYIQASFQYLPGECIEEILDNLGCS-OH (designed binder, disulfide 1-34, 20-44) [C203]

1. 1.1 nM
2. 2.3 nM
